Source listed as ChEMBL document CHEMBL5126579.

Target or system: Dipeptidyl peptidase 3 (Homo sapiens, UniProt Q9NY33)
Sequence (Q9NY33 whole entry): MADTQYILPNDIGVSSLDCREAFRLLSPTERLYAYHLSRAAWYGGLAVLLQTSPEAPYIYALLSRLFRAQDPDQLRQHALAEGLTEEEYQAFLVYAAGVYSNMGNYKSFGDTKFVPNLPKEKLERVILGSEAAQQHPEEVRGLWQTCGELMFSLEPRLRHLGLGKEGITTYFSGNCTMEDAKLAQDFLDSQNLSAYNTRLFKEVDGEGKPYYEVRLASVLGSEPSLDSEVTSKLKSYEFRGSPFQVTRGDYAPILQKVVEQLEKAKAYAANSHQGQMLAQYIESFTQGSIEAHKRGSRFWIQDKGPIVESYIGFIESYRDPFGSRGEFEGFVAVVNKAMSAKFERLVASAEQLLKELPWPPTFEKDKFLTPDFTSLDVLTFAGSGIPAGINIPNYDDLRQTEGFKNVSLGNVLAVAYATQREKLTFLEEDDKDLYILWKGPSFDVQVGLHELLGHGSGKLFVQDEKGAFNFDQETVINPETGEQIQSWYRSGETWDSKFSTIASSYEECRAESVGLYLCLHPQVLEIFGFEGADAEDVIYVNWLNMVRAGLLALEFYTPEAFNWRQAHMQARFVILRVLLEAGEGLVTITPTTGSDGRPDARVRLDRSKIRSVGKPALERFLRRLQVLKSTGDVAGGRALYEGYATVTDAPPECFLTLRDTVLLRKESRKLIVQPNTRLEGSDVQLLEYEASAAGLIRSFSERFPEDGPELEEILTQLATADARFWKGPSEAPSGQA
Procedure details: Competitive inhibition of DPP3 (unknown origin) using Arg-Arg-2-naphthylamide as substrate
Endpoint label: IC50 (µM)

[I] Cc1cc(=O)c2c(cc(O)c3c4c(O)cccc4c(=O)c32)c1=O
[II] CC1C(=O)c2cc(O)c3c(c2C(O)C1O)C(=O)c1cccc(O)c1-3 (configuration not stated)
### Prompt So which one has the bigger IC50 here, I or II ? Respond using the label that marks the chosen record.
### Response II
